# test target: human TRPA1 (Homo sapiens, UniProt O75762)
# Construct: expressed in transfected cells; host or cells: CHO cells
# Sequence (O75762 whole entry): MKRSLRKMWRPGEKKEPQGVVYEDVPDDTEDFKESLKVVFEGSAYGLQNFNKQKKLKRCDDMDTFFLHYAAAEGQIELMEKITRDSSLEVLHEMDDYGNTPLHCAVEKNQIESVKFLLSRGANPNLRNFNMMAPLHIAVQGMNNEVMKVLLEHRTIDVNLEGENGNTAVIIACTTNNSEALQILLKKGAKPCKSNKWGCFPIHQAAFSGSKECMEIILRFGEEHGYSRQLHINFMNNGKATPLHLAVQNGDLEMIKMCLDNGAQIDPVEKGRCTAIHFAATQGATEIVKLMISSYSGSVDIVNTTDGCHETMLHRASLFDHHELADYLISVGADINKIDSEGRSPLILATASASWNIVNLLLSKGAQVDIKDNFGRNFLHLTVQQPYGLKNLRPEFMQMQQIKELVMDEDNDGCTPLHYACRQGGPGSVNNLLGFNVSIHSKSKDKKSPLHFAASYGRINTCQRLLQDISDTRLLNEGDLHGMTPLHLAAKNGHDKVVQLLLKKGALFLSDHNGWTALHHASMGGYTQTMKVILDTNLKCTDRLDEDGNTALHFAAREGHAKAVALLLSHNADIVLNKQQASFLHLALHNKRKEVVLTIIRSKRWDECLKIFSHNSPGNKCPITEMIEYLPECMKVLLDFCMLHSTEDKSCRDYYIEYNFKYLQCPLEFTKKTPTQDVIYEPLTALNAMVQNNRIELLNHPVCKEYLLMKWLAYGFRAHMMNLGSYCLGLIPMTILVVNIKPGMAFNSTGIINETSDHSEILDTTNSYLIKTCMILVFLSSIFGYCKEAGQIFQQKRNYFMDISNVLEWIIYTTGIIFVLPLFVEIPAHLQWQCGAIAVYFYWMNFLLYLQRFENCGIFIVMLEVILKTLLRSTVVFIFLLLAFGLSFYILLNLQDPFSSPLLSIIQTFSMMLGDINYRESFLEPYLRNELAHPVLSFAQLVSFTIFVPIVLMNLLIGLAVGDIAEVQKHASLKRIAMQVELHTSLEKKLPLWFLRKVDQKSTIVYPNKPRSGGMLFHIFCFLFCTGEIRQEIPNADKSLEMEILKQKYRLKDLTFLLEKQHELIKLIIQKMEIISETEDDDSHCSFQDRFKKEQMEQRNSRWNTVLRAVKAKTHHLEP
# protocol description: TRPA1 FLIPR Tetra calcium influx assay in CHO cells (block of cinnamaldehyde-induced calcium influx)
# Format: cell-based
# experimental conditions: Table 2; CHO cells expressing TRPA1; agonist cinnamaldehyde 75 uM; 20 min compound incubation; Hill coefficient fixed to 1.5; read-out: hTRPA1 CHO Ca2+ AUC EVO (IC50)
pIC50: −log10 of the molar value.
# if value of pIC50 reaches 8, tag criterion met; if it stays below, tag criterion not met

In [3]: df
Out[3]:
                                    molecule                               test_target         class_name
 0  C[C@H]1[C@H](F)C[C@@H](C(=O)NCc2cc(-c3cnc(C(F)(F)F)nc3)ncc2F)N1S(=O)(=O)c1ccc(F)cc1  human TRPA1 (Homo sapiens, UniProt O75762)      criterion met
 1  C[C@H]1[C@H](F)C[C@@H](C(=O)NCc2cc(-c3cnc(C(F)(F)F)nc3)ncc2F)N1S(=O)(=O)c1cc2cc(F)ccc2o1  human TRPA1 (Homo sapiens, UniProt O75762)      criterion met
 2  C[C@H]1[C@H](F)C[C@@H](C(=O)NCc2cc(-c3cnc(C(F)(F)F)nc3)nc(OCC(F)(F)F)n2)N1S(=O)(=O)c1ccc(F)cc1  human TRPA1 (Homo sapiens, UniProt O75762)      criterion met
 3  C[C@H]1[C@H](F)C[C@@H](C(=O)NCc2cc(C3CCN(CC(F)(F)F)CC3)ncc2F)N1S(=O)(=O)c1ccc(F)cc1  human TRPA1 (Homo sapiens, UniProt O75762)  criterion not met
 4  C[C@H]1[C@H](F)C[C@@H](C(=O)NCc2cc(-c3cnc(C(F)(F)F)nc3)c(C3CC3)cn2)N1S(=O)(=O)c1ccc(F)cc1  human TRPA1 (Homo sapiens, UniProt O75762)  criterion not met
 5  C[C@H]1[C@H](F)C[C@@H](C(=O)NCc2cc(-c3cnc(C(F)(F)F)nc3)c(F)cn2)N1S(=O)(=O)c1ccc(F)c(F)c1  human TRPA1 (Homo sapiens, UniProt O75762)      criterion met
 6  O=C(NCc1cc(N2CCC(OC(F)(F)F)CC2)ncc1F)[C@@H]1C[C@@H](F)CN1S(=O)(=O)c1ccc(F)cc1  human TRPA1 (Homo sapiens, UniProt O75762)  criterion not met
 7  C[C@H]1[C@H](F)C[C@@H](C(=O)NCc2cc([C@H]3C[C@H](OC(F)(F)F)C3)ncc2F)N1S(=O)(=O)c1ccc(F)cc1  human TRPA1 (Homo sapiens, UniProt O75762)      criterion met
 8  C[C@H]1[C@H](F)C[C@@H](C(=O)NCc2cc(-c3cnc(C(F)(F)F)nc3)ncc2F)N1S(=O)(=O)c1ccc(Cl)cc1  human TRPA1 (Homo sapiens, UniProt O75762)      criterion met
 9  CCc1cc(CNC(=O)[C@@H]2C[C@@H](F)CN2S(=O)(=O)c2ccc(F)cc2)cc(-c2cnc(C(F)(F)F)nc2)n1  human TRPA1 (Homo sapiens, UniProt O75762)  criterion not met
10  O=C(NCc1cc(-c2cnc(C(F)(F)F)nc2)ncc1C(F)(F)F)[C@@H]1[C@H]2C[C@H]2CN1S(=O)(=O)c1ccc(F)cc1  human TRPA1 (Homo sapiens, UniProt O75762)      criterion met
